# target: p38α (Homo sapiens, UniProt Q16539)
# Construct: GST-tagged fusion protein corresponding to full-length human p38α; purchased Upstate 14-251; host or cells: E. coli
# Sequence (Q16539 whole entry, the tested form may be a part): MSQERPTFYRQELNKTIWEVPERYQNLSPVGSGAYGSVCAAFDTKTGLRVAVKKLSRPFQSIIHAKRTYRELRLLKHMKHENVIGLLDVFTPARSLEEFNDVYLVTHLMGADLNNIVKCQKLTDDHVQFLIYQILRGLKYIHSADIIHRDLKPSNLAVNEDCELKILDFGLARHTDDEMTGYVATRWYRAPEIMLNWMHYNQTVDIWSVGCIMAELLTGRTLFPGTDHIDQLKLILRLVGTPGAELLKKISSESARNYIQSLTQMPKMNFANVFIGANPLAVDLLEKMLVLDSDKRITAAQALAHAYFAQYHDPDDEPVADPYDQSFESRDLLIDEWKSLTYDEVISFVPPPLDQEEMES
# test details: Inhibition of p38α enzyme activity (IMAP fluorescence polarisation kinase assay)
# Assay type: biochemical
# condition label: at 1 μM compound; ATP 20 μM; 2 h at RT
# Method: Inhibition of p38α Enzyme Activity: […] Data handling is performed as follows: percentage effects are calculated based on no-p38-enzyme-addition as the maximum inhibitory effect and with p38 enzyme addition as the minimum inhibitory effect. In each experiment, individual compound concentrations are tested in duplicate and percentage effect is calculated for each concentration.
observation type: inhibition at 1 µM

Solved entries:
substance smiles | assay result
O=C(NCCN1CCCCC1)c1cc2c(-c3ccc(F)cc3)c(-c3ccncc3)c(-c3ccc(F)cc3)nc2o1 | > 50%
COCCNC(=O)c1cc2nc(-c3ccc(F)cc3)c(-c3ccncc3)c(-c3ccc(F)cc3)c2n1C | > 50%
O=C(NCCO)c1n[nH]c2c(-c3ccc(F)cc3)c(-c3ccncc3)c(-c3ccc(F)cc3)nc12 | > 50%

Would you kindly look at the next entry?
(Q) Item "CCCNC(=O)c1cc2nc(-c3ccc(F)cc3)c(-c3ccncc3)c(-c3ccc(F)cc3)c2n1C" has what recorded inhibition at 1 µM?
(A) > 50%

###

# inhibition at 1 µM annotations
# target: p38α (Homo sapiens, UniProt Q16539)
# Construct: GST-tagged fusion protein corresponding to full-length human p38α; purchased Upstate 14-251; host or cells: E. coli
# test details: Inhibition of p38α enzyme activity (IMAP fluorescence polarisation kinase assay)
# Assay type: biochemical
# condition label: at 1 μM compound; ATP 20 μM; 2 h at RT

Solved entries:
molecule | inhibition at 1 µM
Cn1c(C(=O)NCCN2CCOCC2)cc2nc(-c3ccc(F)cc3)c(-c3ccncc3)c(-c3ccc(F)cc3)c21 [Example 30] | > 50%
COCCNCc1cc2nc(-c3ccc(F)cc3)c(-c3ccncc3)c(-c3ccc(F)cc3)c2n1C [Example 32] | > 50%
Cn1c(C(C)(C)O)nc2nc(-c3ccc(F)cc3)c(-c3ccncc3)c(-c3ccc(F)cc3)c21 [Example 18] | > 50%

(Q) Item Cn1c(C(=O)NCCO)cc2nc(-c3ccc(F)cc3)c(-c3ccncc3)c(-c3ccc(F)cc3)c21 [Example 13] has what recorded inhibition at 1 µM?
(A) > 50%

(Q) Here is the next molecule: Cn1c(CNCC2CC2)cc2nc(-c3ccc(F)cc3)c(-c3ccncc3)c(-c3ccc(F)cc3)c21 [Example 33]
(A) > 50%

(Q) Here is the next molecule: COC(=O)c1cc2nc(-c3ccc(F)cc3)c(-c3ccncc3)c(-c3ccc(F)cc3)c2n1C [Example 3]
(A) > 50%

(Q) Here is the next molecule: Cn1c(C(=O)NCCN2CCCCC2)cc2nc(-c3ccc(F)cc3)c(-c3ccncc3)c(-c3ccc(F)cc3)c21 [Example 31]
(A) > 50%

###

# inhibition at 1 µM annotations
# target: p38α (Homo sapiens, UniProt Q16539)
# Construct: GST-tagged fusion protein corresponding to full-length human p38α; purchased Upstate 14-251; host or cells: E. coli
# test details: Inhibition of p38α enzyme activity (IMAP fluorescence polarisation kinase assay)
# Format: biochemical
# condition label: at 1 μM compound; ATP 20 μM; 2 h at RT

(Q) Item "COc1ccc(-c2nc3cc[nH]c3cc2-c2ccnc(N[C@@H](C)c3ccccc3)n2)cc1" has what recorded inhibition at 1 µM?
(A) > 50%

(Q) Here is the next molecule: "Cn1c(CO)cc2nc(-c3ccc(F)cc3)c(-c3ccncc3)c(-c3ccc(F)cc3)c21"
(A) > 50%

(Q) Here is the next molecule: "CCN(CC(=O)OC)Cc1cc2nc(-c3ccc(F)cc3)c(-c3ccncc3)c(-c3ccc(F)cc3)c2n1C"
(A) > 50%

(Q) Here is the next molecule: "O=C(NCCO)c1cc2c(-c3ccc(F)cc3)c(-c3ccncc3)c(-c3ccc(F)cc3)nc2o1"
(A) > 50%
